# test summary: Plasma pharmacokinetics in mice after single intravenous cassette doses
# condition summary: male, Hsd:ICR (CD-1), mouse, plasma, intravenous, 3 mg/kg, Mean Conc. in plasma, mice, Cassette #2, single 18 mg/kg iv cassette dose (3 mg/kg/compound), 0.083 h
reported property: concentration at 0.083 h (ng/mL)
All answers are understood in ng/mL, so give the number only.

Query: // query concentration at 0.083 h value for entry NC1CCC(Nc2nc(NCCCc3ccccc3)c3ncn(C4CCCC4)c3n2)CC1 (stereo not shown) [MDL 107167, reference compound]
Response: 472

----------
# test summary: Plasma pharmacokinetics in mice after single intravenous cassette doses
# condition summary: male, Hsd:ICR (CD-1), mouse, plasma, intravenous, 3 mg/kg, Mean Conc. in plasma, mice, Cassette #4, single 15 mg/kg iv cassette dose (3 mg/kg/compound), 8 h
reported property: concentration at 8 h (ng/mL)
Write the number in ng/mL without appending the unit.

Query: Would you mind telling me what concentration at 8 h value was observed for NC1CCC(Nc2nc(NCCCc3ccccc3)c3ncn(C4CCCC4)c3n2)CC1 (stereo not shown) [MDL 107167, reference compound] ?
Response: 3.7

----------
# Tested on: PC-3
# test summary: In vitro proliferation assay (MTT), PC-3
# Type: cell-based, human
# condition summary: Homo sapiens, PC-3, read-out: PC-3 Prostate (IC50 μM)
reported property: IC50 (µM)
Express the result in µM but write the number alone.

Query: Which IC50 reading was recorded for the molecule Cl.Cl.N[C@H]1CC[C@H](Nc2nc(NC3CCN(C(=O)Oc4ccc(F)cc4)CC3)c3ncn(C4CCCC4)c3n2)CC1 [Compound 87, dihydrochloride] ?
Response: 0.16

----------
# test summary: Red blood cell binding (RBC to plasma ratio), mouse whole blood
# Assay type: in vitro ADME
# condition summary: 30 minutes at 37° C., nominal 500 ng/ml, hematocrit 0.41
Use 4 as the dividing line for Mean Red Blood Cell to Plasma Ratio, with the line itself on the T side and lower values as F.

These solved cases illustrate the format of a correct answer.
| structure smiles string | assigned category |
| --- | --- |
| Cl.Cl.N[C@H]1CC[C@H](Nc2nc(NC3CCN(S(=O)(=O)c4cccc(C(F)(F)F)c4)CC3)c3ncn(C4CCCC4)c3n2)CC1 | F |
| Cl.Cl.N[C@H]1CC[C@H](Nc2nc(NC3CCN(C(=O)c4cccc(C(F)(F)F)c4F)CC3)c3ncn(C4CCCC4)c3n2)CC1 | F |
| Cl.Cl.N[C@H]1CC[C@H](Nc2nc(NC3CCN(C(=O)Oc4ccc(F)cc4)CC3)c3ncn(C4CCCC4)c3n2)CC1 | F |

Query: Test whether the compound `COc1ccc(OC(=O)N2CCC(Nc3nc(N[C@H]4CC[C@H](N)CC4)nc4c3ncn4C3CCCC3)CC2)cc1.Cl.Cl` records Mean Red Blood Cell to Plasma Ratio of 4 or higher.
Response: F

Query: API: above_or_equal(metric=Mean Red Blood Cell to Plasma Ratio, cutoff=4) for item `Cl.Cl.N[C@H]1CC[C@H](Nc2nc(NC3CCN(C(=O)Oc4ccc(Cl)cc4)CC3)c3ncn(C4CCCC4)c3n2)CC1`
Response: F

Query: Does `Cl.Cl.N[C@H]1CC[C@H](Nc2nc(NC3CCN(C(=O)Oc4ccccc4)CC3)c3ncn(C4CCCC4)c3n2)CC1` have a reported Mean Red Blood Cell to Plasma Ratio of at least 4?
Response: T
